The compounds below each have a reported pIC50 tested on Thymidylate synthase (Homo sapiens, UniProt P04818); the values come from various publications.
Sequence (P04818 whole entry): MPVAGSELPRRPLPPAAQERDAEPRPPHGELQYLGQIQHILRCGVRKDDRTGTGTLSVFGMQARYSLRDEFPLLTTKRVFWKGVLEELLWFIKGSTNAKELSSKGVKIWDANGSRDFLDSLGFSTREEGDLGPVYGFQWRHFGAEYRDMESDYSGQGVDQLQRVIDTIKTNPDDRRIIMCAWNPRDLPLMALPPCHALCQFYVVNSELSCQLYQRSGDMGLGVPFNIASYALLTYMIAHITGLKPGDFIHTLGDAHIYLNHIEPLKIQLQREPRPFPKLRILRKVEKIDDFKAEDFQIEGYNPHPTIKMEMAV
Numbers only, as −log10 of the molar value.

Example results:
# smilesStr, testedTarget, pIC50
data = [
    ("CCN(Cc1ccc2nc(C)[nH]c(=O)c2c1)c1ccc(C(=O)N[C@@H](CCC(=O)O)C(=O)O)c(N)c1", "Thymidylate synthase (Homo sapiens, UniProt P04818)", 6.51),
    ("CCc1nc2ccc(CNc3ccc(C(=O)N[C@@H](CCC(=O)O)C(=O)O)cc3)cc2c(=O)[nH]1", "Thymidylate synthase (Homo sapiens, UniProt P04818)", 4.70),
    ("C=CCN(Cc1ccc2nc(C)[nH]c(=O)c2c1)c1ccc(C(=O)N[C@@H](CCC(=O)O)C(=O)O)cc1", "Thymidylate synthase (Homo sapiens, UniProt P04818)", 6.32),
    ("C=CCN(Cc1ccc2nc(C)[nH]c(=O)c2c1)c1ccc(C(=O)N[C@@H](CCC(=O)O)C(=O)O)cc1F", "Thymidylate synthase (Homo sapiens, UniProt P04818)", 5.29),
    ("Cc1cc2nc(N)[nH]c(=O)c2n1Cc1ccc([N+](=O)[O-])cc1", "Thymidylate synthase (Homo sapiens, UniProt P04818)", 5.85),
]

Continue with the compound presented below.
Supply measured pIC50 of COC(=O)[C@H](Cc1c[nH]c2ccccc12)NC(=O)c1ccc(Sc2c(C)ccc3nc(N)[nH]c(=O)c23)cc1 in your reply. 8.52
